Reported pIC50 values for a set of compounds
# System: KB
# assay_info: In vitro inhibition of growth of KB cells (cytotoxic assay).
# Format: functional, cell-based, Homo sapiens
# assay_conditions: Homo sapiens, KB
pIC50: −log10 of the molar value.
readout_type: pIC50

INSERT INTO measurements (compound, recorded_number) VALUES
  ('CCN1/C(=C/C=c2\s/c(=C\c3sc4ccc5ccccc5c4[n+]3CC)n(CC)c2=O)Sc2ccc3ccccc3c21.Cc1ccc(S(=O)(=O)[O-])cc1', 6.68),
  ('CC(=O)[O-].CCn1c(=O)/c(=C2\Sc3ccccc3N2C)s/c1=C\C1CCC[n+]2c1sc1ccccc12 (stereo not given)', 6.64),
  ('CC(=O)[O-].CCN1C(C)=CS/C1=C\C=c1/s/c(=C\c2sc3ccccc3[n+]2CC)n(CC)c1=O', 6.60),
  ('CC(=O)[O-].CCn1c(=O)/c(=C2\Sc3ccccc3N2C)s/c1=C\C1=[N+](CC)CCS1', 5.21),
  ('CC(=O)[O-].CCn1c(=O)/c(=C2\Sc3ccc4ccccc4c3N2C)s/c1=C\c1oc2c3ccccc3ccc2[n+]1CC', 7.10);

---

Reported pIC50 values for a set of compounds
# System: CX-1
# assay_info: In vitro inhibition of growth of human carcinoma CX-1 cell line (clonogenic assay).
# Type: functional, cell-based
# assay_conditions: Homo sapiens, CX-1
pIC50: −log10 of the molar value.
readout_type: pIC50

INSERT INTO measurements (chem_smiles, readout_type, result_qualifier, recorded_number) VALUES
  ('CCn1c(=O)/c(=C/C=C2/N(C)c3ccccc3C2(C)C)s/c1=C\c1oc2c3ccccc3ccc2[n+]1CC.Cc1ccc(S(=O)(=O)[O-])cc1', 'pIC50', '=', 8.00),
  ('CCCC[n+]1c(/C=c2\s/c(=C\C=C3/SCCN3CC)c(=O)n2CC)sc2c3ccccc3ccc21', 'pIC50', '=', 7.52),
  ('CC(=O)[O-].CCn1c(=O)/c(=C2\Sc3ccccc3N2C)s/c1=C\c1scc(C)[n+]1CC', 'pIC50', '=', 6.96),
  ('CC(=O)[O-].CCn1c(=O)/c(=C2\SCCN2C)s/c1=C\c1sc2ccc3ccccc3c2[n+]1CC', 'pIC50', '=', 6.80),
  ('CC(=O)[O-].CCn1c(=O)/c(=C2\Sc3ccccc3N2C)s/c1=C\C1=[N+](CC)CCS1', 'pIC50', '=', 5.98),
  ('CCN1CCS/C1=C\C=c1/s/c(=C\c2sc3c4ccccc4ccc3[n+]2CCO)n(CC)c1=O', 'pIC50', '=', 6.41),
  ('CCn1c(=O)/c(=C2\Oc3ccccc3N2C)s/c1=C\c1cccc[n+]1CC', 'pIC50', '<', 5.62),
  ('CCN1CCS/C1=C\C=c1/s/c(=C\c2sc3c4ccccc4ccc3[n+]2C)n(CC)c1=O', 'pIC50', '=', 7.52),
  ('CC(=O)[O-].CCn1c(=O)/c(=C2\Sc3ccccc3N2C)s/c1=C\c1ccc2ccccc2[n+]1CC', 'pIC50', '=', 6.55),
  ('CC(=O)[O-].CCN1C(C)=CS/C1=C\C=c1/s/c(=C\c2sc3ccccc3[n+]2CC)n(CC)c1=O', 'pIC50', '=', 7.22),
  ('CC(=O)[O-].CCn1c(=O)/c(=C2\Sc3ccccc3N2C)s/c1=C\c1oc2ccccc2[n+]1CC', 'pIC50', '=', 6.74),
  ('CCn1c(=O)/c(=C2\C=CC=CN2C)s/c1=C\c1sc2ccccc2[n+]1CC', 'pIC50', '=', 5.75),
  ('CC(=O)[O-].CCn1c(=O)/c(=C2\Sc3ccc4ccccc4c3N2C)s/c1=C\c1oc2c3ccccc3ccc2[n+]1CC', 'pIC50', '=', 6.17),
  ('CCn1c(=O)/c(=C/C=C2\Sc3ccc4ccccc4c3N2C)s/c1=C\c1scc(C)[n+]1CC', 'pIC50', '<', 5.74),
  ('CCN1/C(=C/C=c2\s/c(=C\c3sc4ccc5ccccc5c4[n+]3CC)n(CC)c2=O)Sc2ccc3ccccc3c21.Cc1ccc(S(=O)(=O)[O-])cc1', 'pIC50', '=', 7.40),
  ('CCN1CCS/C1=C\C=c1/s/c(=C\c2sc3c4ccccc4ccc3[n+]2CCC(=O)O)n(CC)c1=O', 'pIC50', '<', 5.82),
  ('CCN1CCS/C1=C\C=c1/s/c(=C\c2sc3c4ccccc4ccc3[n+]2CC)n(CC)c1=O', 'pIC50', '=', 7.70);

These data points were gathered from ChEMBL document CHEMBL1131199.
